Test: Quantitative High-Throughput drug screen in 47 multiple myeloma cell lines against the NCATS MIPE library collection: FR4_PLB cell viability assay (AID 1918924; further: nearly all actives have a fitted effect of over 35% in size)
Details: FR4_PLB myeloma cells viability, CellTiter-Glo ATP, 48 h; series mostly up to 45.8 µM
Results filed as inconclusive are left out. Calls of active or inactive are those of the source. The call rests on the fitted dose curve; in most records, active means well fitted cell-killing curve with a large enough effect; inconclusive means small, poorly fitted or top-dose-only effect, or effect the other way; inactive means no such curve, though single readings can be large or run the other way.
Possible outcomes: active, inactive

>>> print(df.to_string())
                             chemical_string  assigned_label
 0  CC(C)(C)c1cc(C(=O)O)c(NC(=O)Nc2ccc3[nH]ncc3c2)s1        inactive
 1     COc1ccc(Cc2nccc3cc(OC)c(OC)cc23)cc1OC        inactive
 2  O=C(OCC#CCSc1nnc(-c2cccc3ccccc23)o1)c1cc2ccccc2s1        inactive
 3  O=C(N[C@@H](c1ccccc1)[C@@H]1CCCCN1)c1cccc(C(F)(F)F)c1Cl        inactive
 4    O=C1C(Cl)=C(NCCN2CCOCC2)C(=O)c2ncccc21          active
 5  COc1ccc(Cc2ccc(NC(N)=O)cc2)cc1-c1cccc(Cl)c1        inactive
 6  CC1(C)CCC(CN2CCN(c3ccc(C(=O)NS(=O)(=O)c4ccc(NCC5CCOCC5)c([N+](=O)[O-])c4)c(Oc4cnc5[nH]ccc5c4)c3)CC2)=C(c2ccc(Cl)cc2)C1          active
 7   CN(C)CCC=C1c2ccccc2COc2ccc(CC(=O)O)cc21        inactive
 8  CCC(=O)O[C@]1(C(=O)CO)CC[C@H]2[C@@H]3CCC4=CC(=O)CC[C@]4(C)[C@@H]3CC[C@@]21C        inactive
 9  N#C[C@H]1C[C@H]2C[C@@H]2N1C(=O)[C@@H](N)C12CC3CC(CC(O)(C3)C1)C2        inactive
10  COc1cc(Nc2ncc(F)c(Nc3ccc4c(n3)NC(=O)C(C)(C)O4)n2)cc(OC)c1OC          active
11  Nc1nc(F)nc2c1ncn2[C@@H]1O[C@H](COP(=O)(O)O)[C@@H](O)[C@H]1O          active
12  CC(C)(C)OC(=O)N[C@H]1CCCCCC=C[C@@H]2C[C@@]2(C(=O)NS(=O)(=O)C2CC2)NC(=O)[C@@H]2C[C@@H](OC(=O)N3Cc4cccc(F)c4C3)CN2C1=O        inactive

---

Test: High-throughput drug toxicity screening in the BPDCN cell line Cal-1 (AID 1224825);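 further: cells exposed to compounds for 48 h; 100% = DMSO and 0% = bortezomib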
Details: Cal-1 BPDCN cell viability, qHTS; at 45.8 µM (top of the series) unless noted
Excerpt: Blastic plasmacytoid dendritic cell neoplasm (BPDCN) is a rare, aggressive and largely incurable hematologic malignancy originating from plasmacytoid dendritic cells (pDCs). Although an initial response to chemotherapy is common, BPDCN prognosis is extremely poor and most patients relapse with drug-resistant disease leading to a median overall survival of ~1 year after diagnosis. […]
VALUE TYPE: viability (% of control) (%)

>>> print(df.to_string())
                                    compound  test_value
 0                   O=C(O)C=Cc1ccc(O)c(O)c1        8.99
 1   CC(C)(C)COc1ccc(-n2cc(C(=O)O)cn2)cc1C#N         106
 2  CC(C)(C)C(=O)Oc1ccc2c(c1)nc(NC(=O)c1cccc([N+](=O)[O-])c1)n2CCCO         102
 3  CON=C(C(=O)N[C@@H]1C(=O)N2C(C(=O)OCOC(=O)C(C)(C)C)=C(C=Cc3scnc3C)CS[C@H]12)c1csc(N)n1         115
 4  CN1[C@@H]2CCC[C@@H]1CC(NC(=O)c1nn(C)c3ccccc13)C2 (some centres undefined)         105
 5       COc1cccc([C@@H](C)NCCCc2ccccc2Cl)c1        66.2
 6  COC(=O)C1=CO[C@@H](O)[C@@H]2C(CO)=CC[C@@H]12        16.7
 7  C=C1C(=O)OC2C=C(C)CCC=C(C)CCC12 (centres undefined)        11.5
 8  O=c1ccn([C@@H]2O[C@H](CO)[C@H](O)[C@H]2O)c(=O)[nH]1         112
 9  CCOC(CN1C(=O)[C@](CC(=O)Nc2ccc(C)cc2)(NC(=O)Nc2ccc(C)cc2)c2ccccc21)OCC        46.4
10  C[N+]1(C)[C@@H]2CC(OC(=O)[C@H](CO)c3ccccc3)C[C@H]1[C@H]1O[C@@H]12 (some centres undefined)         130
11  CCOC(=O)C1=C(N)Oc2ccc(Br)cc2C1C(C#N)C(=O)OCC (centres undefined)        9.05
12    CN(C)Cc1ccc(-c2nc3cccc4c3n2CCNC4=O)cc1        4.01
13  CN(C)C1CCN(C(=O)c2ccc(NC(=O)Nc3nc(N4CCOCC4)nc(N4CCOCC4)n3)cc2)CC1        12.5
14  COCCOc1nc(-c2ccc(Cl)c(Cl)c2)n(-c2ccc(NC(=O)CCl)cc2)n1        37.2
15  CN1C[C@H]2c3ccccc3Oc3ccc(Cl)cc3[C@@H]2C1        73.9
16  NC(=O)c1cnc(-c2ccc(C3(N)CCC3)cc2)c(-c2ccccc2)c1          67
17  Clc1ccc(COC(Cn2ccnc2)c2ccc(Cl)cc2Cl)cc1 (centres undefined)        70.1
18  C[C@]12CC[C@@H]3c4ccc(O)cc4C[C@@H](CCCCCCCCCS(=O)CCCC(F)(F)C(F)(F)F)[C@H]3[C@H]1CC[C@H]2O (some centres undefined)         108
19      O=c1cc(-c2ccc(O)cc2)oc2cc(O)cc(O)c12        4.48
20                CC(=NNC(=S)N1CCC1)c1ccccn1        9.75
21  Nc1ncnc2c1ncn2[C@@H]1O[C@H](CO)C[C@@H]1O        39.8
22  CC1(C)O[C@H]2C[C@@H]3[C@H]4CCC5=CC(=O)C=C[C@]5(C)[C@@]4(F)[C@@H](O)C[C@]3(C)[C@]2(C(=O)CO)O1        8.18
23  C[C@]12CC[C@@H]3c4ccc(O)cc4CC[C@H]3[C@H]1C[C@@H](O)[C@H]2O        67.8
